# credit: ChEMBL document CHEMBL3244135

Species on record: Rattus norvegicus
Test: Binding affinity to prostanoid receptor in Holtzman rat lipocytes assessed as compound equivalent to 1 ng cold PGE1 in displacing [3H]-PGE1 from receptor after 30 mins
Assay type: cell-based
Conditions: in the assay text read “after 60 mins” for “after 30 mins”

# Compound, Result Operator, Activity, µgequiv
data = [
    ("CC(=O)C(CCCCCCC(=O)O)CCCC1(O)CCCCC1 (stereo unspecified)", ">", 125),
    ("CCCCC(O)CCCCC(CCCCCCC(=O)O)C(C)=O (stereo unspecified)", "=", 2.1),
    ("CCCCCC(C)(O)CCCC(CCCCCCC(=O)O)C(C)=O (stereo unspecified)", "=", 0.4),
    ("CCCCCC(=O)CCCC(CCCCCCC(=O)O)C(C)=O (stereo unspecified)", "=", 7),
    ("CCCCC[C@H](O)CCCC(CCCCCCC(=O)O)C(C)=O (stereo partly specified)", "=", 3.2),
]
